Items are presented alongside their recorded GI50.
- Tested on: UO-31
- PROTOCOL DETAILS: NCI tumour cell line growth inhibition, 48 h
Active and inactive are the calls of the source. Rule as the data show it: active = GI50 up to about 1.1 µM and inactive = higher.

For orientation, consider the following solved cases.
[
  {
    "COMPOUND": "CCN1CCN=c2c3cc(OC)ccc3n3cnc4ccc1c2c43",
    "GI50": "0.147 µM (active)"
  },
  {
    "COMPOUND": "O=C1O/C(=C\\c2ccccc2)N(c2ccccc2)C1=O",
    "GI50": "> 100 µM (inactive)"
  },
  {
    "COMPOUND": "[O-][S+]1c2ccccc2NC(c2ccc3ccccc3c2)CC1c1ccccc1 (stereo not given)",
    "GI50": "18 µM (inactive)"
  },
  {
    "COMPOUND": "Cc1c(Cc2ccccc2)c(Cc2ccccc2)c(C)[s+]1[O-]",
    "GI50": "31.7 µM (inactive)"
  }
]

INPUT: Provide measured GI50 value, entry: `COC(=O)[C@@H]1[C@H](O)CC[C@H]2[C@@]1(C)CC[C@@H](C)[C@]2(COC(C)=O)CC(=O)c1ccoc1`
OUTPUT: > 50 µM (inactive)

INPUT: Determine its reported GI50: COc1cc(/C=C2\NC(=S)C3Cc4c(OC)c(C)c(OC)c(OC)c4C2N3C)c(OC)c(C)c1OC (stereo not given)
OUTPUT: 21.2 µM (inactive)

INPUT: Tell me its GI50 given `CC(C)(C)OC/C=C1\C(=O)O[C@H]2C[C@@H](O[Si](C)(C)C(C)(C)C)C[C@@H]12` as the entry.
OUTPUT: 53.8 µM (inactive)

INPUT: Please report the measured GI50 for CC1(O)/C(=N/O)CC2CC1C2(C)C (stereo not given)
OUTPUT: > 100 µM (inactive)

INPUT: Tell me GI50 reported for COC1CCCc2c(OC(C)=O)ccc(OC(C)=O)c21 (stereo not given)
OUTPUT: > 100 µM (inactive)

INPUT: Using known records, supply GI50 for CCOC(=O)C(NC(=O)CC)(Nc1cc(C)on1)C(F)(F)F (stereo not given)
OUTPUT: > 100 µM (inactive)
